Ref: the supplement of paper PMC9233669

system: biotinyl-Trp-oxazolone; test: self-aminoacylation, catalytic enhancement (BWO) (fold over background); higher = more active; k-Seq, kA / k0A0; sequences stand for … in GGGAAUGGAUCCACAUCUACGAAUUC…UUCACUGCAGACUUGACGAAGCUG
This sample holds only a part of the variants without activity.
observedProperty: self-aminoacylation

INSERT INTO measurements (orderedresidues, testsystem, valueobserved) VALUES
  ('CUACUUCUAACAAUCGGUCUU [Fam1A.1 aminoacylation ribozyme variant]', 'biotinyl-Trp-oxazolone', 0.465),
  ('UUACUUCAAACAAUCAGUCUG [Fam1A.1 aminoacylation ribozyme variant]', 'biotinyl-Trp-oxazolone', 9.66),
  ('CCACACUUCAACGAAUCGGUC [Fam1B.1 aminoacylation ribozyme variant]', 'biotinyl-Trp-oxazolone', 9.08),
  ('AAGUUCGUUAAUAGUCGCAAG [Fam3.1 aminoacylation ribozyme variant]', 'biotinyl-Trp-oxazolone', 1.56);

* * *

system: biotinyl-Met-oxazolone; assay: self-aminoacylation, catalytic enhancement (BMO) (fold over background); higher = more active; k-Seq, kA / k0A0; sequences stand for … in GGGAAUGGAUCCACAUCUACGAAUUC…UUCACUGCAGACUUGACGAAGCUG
Variants at the floor of the assay were thinned out.
Short version: self-aminoacylation at least 2 is true, less is false.

INSERT INTO assay_data (orderedresidues, discretelabel) VALUES
  ('AUUACCUUGGUCAUCGUGUGA [Fam2.1 aminoacylation ribozyme variant]', 'true'),
  ('CCACGAUUCAAGCAAUCGGUC [Fam1B.1 aminoacylation ribozyme variant]', 'false'),
  ('AUUCACGUAGGUCAUAGGGUG [Fam2.2 aminoacylation ribozyme variant]', 'true'),
  ('AUUCACUUAGGUAAUCGGGUG [Fam2.2 aminoacylation ribozyme variant]', 'true'),
  ('AUUCACAUAGGUGAUCGGGUG [Fam2.2 aminoacylation ribozyme variant]', 'true'),
  ('AUUACCUUGGUCAUCGAUUGA [Fam2.1 aminoacylation ribozyme variant]', 'false'),
  ('AUAUCCCUGGUCAUCGAGUGA [Fam2.1 aminoacylation ribozyme variant]', 'true'),
  ('CUACUUCAAACAUUCCGUCUG [Fam1A.1 aminoacylation ribozyme variant]', 'false'),
  ('CUACUUCAAACAAUCGUACUG [Fam1A.1 aminoacylation ribozyme variant]', 'false'),
  ('CUACGUCAAACAAUCGGUCUC [Fam1A.1 aminoacylation ribozyme variant]', 'false'),
  ('AUUCCCCUGGUCAUCAAGUGA [Fam2.1 aminoacylation ribozyme variant]', 'true'),
  ('AAUGCCCUGGUCAUCGAGUGA [Fam2.1 aminoacylation ribozyme variant]', 'true'),
  ('CCACACUUCAAGCAAUCAGUU [Fam1B.1 aminoacylation ribozyme variant]', 'false'),
  ('CCAAACUUCAAGCAUUCGGUC [Fam1B.1 aminoacylation ribozyme variant]', 'false'),
  ('AAGUUUGCUAAUCGUCGCGAG [Fam3.1 aminoacylation ribozyme variant]', 'false'),
  ('AAGUUUGCUAAUAGUCGAAAA [Fam3.1 aminoacylation ribozyme variant]', 'true'),
  ('AUUACCCUCCUCAUCGAGUGA [Fam2.1 aminoacylation ribozyme variant]', 'true'),
  ('CUACUACAAACAAUCGGUCAG [Fam1A.1 aminoacylation ribozyme variant]', 'false');

* * *

test system: biotinyl-Met-oxazolone; assay: self-aminoacylation, catalytic enhancement (BMO) (fold over background); higher = more active; k-Seq, kA / k0A0; sequences stand for … in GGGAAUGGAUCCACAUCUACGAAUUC…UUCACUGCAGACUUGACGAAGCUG
This sample holds only a part of the variants without activity.
observedProperty: self-aminoacylation

INSERT INTO measurements (orderedresidues, testsystem, observedproperty, valueobserved) VALUES
  ('AAGCUUGCUAAUAGUAGCAAG [Fam3.1 aminoacylation ribozyme variant]', 'biotinyl-Met-oxazolone', 'self-aminoacylation', 1.08),
  ('AUUCACUUAGGUCAACGGGUG [Fam2.2 aminoacylation ribozyme variant]', 'biotinyl-Met-oxazolone', 'self-aminoacylation', 3.84),
  ('CCACACGUCAACCAAUCGGUC [Fam1B.1 aminoacylation ribozyme variant]', 'biotinyl-Met-oxazolone', 'self-aminoacylation', 1.07),
  ('CCGCACUUCAACCAAUCGGUC [Fam1B.1 aminoacylation ribozyme variant]', 'biotinyl-Met-oxazolone', 'self-aminoacylation', 2.05),
  ('AUUACCCUGAUCAUUGAGUGA [Fam2.1 aminoacylation ribozyme variant]', 'biotinyl-Met-oxazolone', 'self-aminoacylation', 12.9),
  ('CCACACUACAAGCAAUCGGUU [Fam1B.1 aminoacylation ribozyme variant]', 'biotinyl-Met-oxazolone', 'self-aminoacylation', 0.918),
  ('CCACAGUUCAACCAAUCGGUC [Fam1B.1 aminoacylation ribozyme variant]', 'biotinyl-Met-oxazolone', 'self-aminoacylation', 1.23),
  ('CAACUUCAAACAAGCGGUCUG [Fam1A.1 aminoacylation ribozyme variant]', 'biotinyl-Met-oxazolone', 'self-aminoacylation', 1.24),
  ('AAUACCCUGCUCAUCGAGUGA [Fam2.1 aminoacylation ribozyme variant]', 'biotinyl-Met-oxazolone', 'self-aminoacylation', 1.22),
  ('AGUACCCUGGUCAUCAAGUGA [Fam2.1 aminoacylation ribozyme variant]', 'biotinyl-Met-oxazolone', 'self-aminoacylation', 2.28),
  ('AAGUUUCCUAAUAGUCGCAAC [Fam3.1 aminoacylation ribozyme variant]', 'biotinyl-Met-oxazolone', 'self-aminoacylation', 1.73),
  ('AUAACCCUGGUCACCGAGUGA [Fam2.1 aminoacylation ribozyme variant]', 'biotinyl-Met-oxazolone', 'self-aminoacylation', 8.82),
  ('AUGACCUUGGUCAUCGAGUGA [Fam2.1 aminoacylation ribozyme variant]', 'biotinyl-Met-oxazolone', 'self-aminoacylation', 5.23),
  ('UAGUUUGCUAAUAGUCCCAAG [Fam3.1 aminoacylation ribozyme variant]', 'biotinyl-Met-oxazolone', 'self-aminoacylation', 0.851),
  ('AUUAUCCCGGUCAUCGAGUGA [Fam2.1 aminoacylation ribozyme variant]', 'biotinyl-Met-oxazolone', 'self-aminoacylation', 8.46),
  ('AUUAACCUUGUCAUCGAGUGA [Fam2.1 aminoacylation ribozyme variant]', 'biotinyl-Met-oxazolone', 'self-aminoacylation', 6.16),
  ('AUUUACCUAGGUCAUCGGGUA [Fam2.2 aminoacylation ribozyme variant]', 'biotinyl-Met-oxazolone', 'self-aminoacylation', 29.5),
  ('AUUACCCUGGUCAUCGAGAGA [Fam2.1 aminoacylation ribozyme variant]', 'biotinyl-Met-oxazolone', 'self-aminoacylation', 1.8);

* * *

test system: biotinyl-Ile-oxazolone; experiment: self-aminoacylation, catalytic enhancement (BIO) (fold over background); higher = more active; k-Seq, kA / k0A0; sequences stand for … in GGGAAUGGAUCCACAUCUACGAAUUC…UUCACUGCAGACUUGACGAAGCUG
This sample holds only a part of the variants without activity.
# self-aminoacylation per entry
observedProperty: self-aminoacylation

INSERT INTO measurements (orderedresidues, valueobserved) VALUES
  ('AUUAACCUAGGUCAUCAGGUG [Fam2.2 aminoacylation ribozyme variant]', 1.24),
  ('CCUCACUUCAAGGAAUCGGUC [Fam1B.1 aminoacylation ribozyme variant]', 0.76),
  ('AAGUUGACUAAUAGUCGCAAG [Fam3.1 aminoacylation ribozyme variant]', 1.18),
  ('AUUAUCCUGUUCAUCGAGUGA [Fam2.1 aminoacylation ribozyme variant]', 2.87),
  ('AUUCACCUUGAUCAUCGGGUG [Fam2.2 aminoacylation ribozyme variant]', 2.22),
  ('CCACACUUCAACGAAUCGGUC [Fam1B.1 aminoacylation ribozyme variant]', 0.873),
  ('UUACUUCAAACAAUCGAUCUG [Fam1A.1 aminoacylation ribozyme variant]', 0.852),
  ('CUAUUUCAAAAAAUCGGUCUG [Fam1A.1 aminoacylation ribozyme variant]', 1.13),
  ('CUACUUCACACAAUGGGUCUG [Fam1A.1 aminoacylation ribozyme variant]', 0.865),
  ('AUUCUCCUAGGUCAUCGCGUG [Fam2.2 aminoacylation ribozyme variant]', 11.4),
  ('AAGUUUGCUAAUACUGGCAAG [Fam3.1 aminoacylation ribozyme variant]', 0.642),
  ('CUUCACCUAGGUCUUCGGGUG [Fam2.2 aminoacylation ribozyme variant]', 4.13),
  ('AUUACCCGGGUUAUCGAGUGA [Fam2.1 aminoacylation ribozyme variant]', 5.68),
  ('CCACACUUCAAGCAAUCUGUG [Fam1B.1 aminoacylation ribozyme variant]', 0.514),
  ('AAGUUCCCUAAUAGUCGCAAG [Fam3.1 aminoacylation ribozyme variant]', 1.12),
  ('CUACUUCGAACAAUCGGUCGG [Fam1A.1 aminoacylation ribozyme variant]', 1.02),
  ('CAGUUUGCUAAUAGUCGCGAG [Fam3.1 aminoacylation ribozyme variant]', 2.33),
  ('AAGUUGGCUAAUACUCGCAAG [Fam3.1 aminoacylation ribozyme variant]', 1.39),
  ('AUUACCCUCGUCAUCGAGUAA [Fam2.1 aminoacylation ribozyme variant]', 0.904),
  ('CCUCACUCCAAGCAAUCGGUC [Fam1B.1 aminoacylation ribozyme variant]', 1.03),
  ('AUAACCCGGGUCAUCGAGUGA [Fam2.1 aminoacylation ribozyme variant]', 3.78),
  ('AGGUUUGCUAUUAGUCGCAAG [Fam3.1 aminoacylation ribozyme variant]', 1.28),
  ('CUACUUCAAACAAUCGGUCCA [Fam1A.1 aminoacylation ribozyme variant]', 0.753),
  ('AUUUCCCUGGUCAUUGAGUGA [Fam2.1 aminoacylation ribozyme variant]', 4.47),
  ('ACUCACCUAGGUCAUUGGGUG [Fam2.2 aminoacylation ribozyme variant]', 2.31),
  ('AGUACCCUGGUCAUCGGGUGA [Fam2.1 aminoacylation ribozyme variant]', 9.32),
  ('AAGUUUGCUAAUAGGCCCAAG [Fam3.1 aminoacylation ribozyme variant]', 1.32),
  ('CUUACCCCGGUCAUCGAGUGA [Fam2.1 aminoacylation ribozyme variant]', 3.44),
  ('AUUACCCUGGACAUCUAGUGA [Fam2.1 aminoacylation ribozyme variant]', 2.55),
  ('CGACACUUCAAGUAAUCGGUC [Fam1B.1 aminoacylation ribozyme variant]', 1.69),
  ('AUUCACCUAGGUCUCCGGGUG [Fam2.2 aminoacylation ribozyme variant]', 4.71),
  ('AUCCUUCAAACAAUCGGUCUG [Fam1A.1 aminoacylation ribozyme variant]', 0.755),
  ('CCAUACUUCAAGCACUCGGUC [Fam1B.1 aminoacylation ribozyme variant]', 1.01),
  ('CCACAAUUGAAGCAAUCGGUC [Fam1B.1 aminoacylation ribozyme variant]', 0.913),
  ('GUACUUCAACCAAUCGGUCUG [Fam1A.1 aminoacylation ribozyme variant]', 1.39);
